Data origin: Sander's compilation of Henry's law constants (doi:10.1021/ac00058a023)

Test: Henry solubility constant Hcp at 298.15 K (mol/(m3 Pa))
Settings: reference: Li and Carr (1993)
property name: Henry solubility constant Hcp
Reply: number alone, nothing else.

Example entries and their recorded answers appear below.
Please give measured Henry solubility constant Hcp of the following entry: CC(C)OC(C)C [diisopropyl ether]
0.0042

Please give measured Henry solubility constant Hcp of the following entry: CC(C)C#N [2-methylpropanenitrile]
0.094

Please give measured Henry solubility constant Hcp of the following entry: CC(C)c1ccccc1 [(2-propyl)-benzene]
0.00091

Please give measured Henry solubility constant Hcp of the following entry: CCCCCO [1-pentanol]
0.84

Please give measured Henry solubility constant Hcp of the following entry: CC#N [ethanenitrile]
0.46

---
Please give measured Henry solubility constant Hcp of the following entry: CCCO [1-propanol]
1.4

Please give measured Henry solubility constant Hcp of the following entry: ClC(Cl)(Cl)Cl [tetrachloromethane]
0.00023

Please give measured Henry solubility constant Hcp of the following entry: CCCCCCO [1-hexanol]
0.64

Please give measured Henry solubility constant Hcp of the following entry: CCO [ethanol]
1.9

Please give measured Henry solubility constant Hcp of the following entry: ClC(Cl)C(Cl)Cl [1,1,2,2-tetrachloroethane]
0.029

Please give measured Henry solubility constant Hcp of the following entry: CCc1ccccc1 [ethylbenzene]
0.0013

Please give measured Henry solubility constant Hcp of the following entry: c1ccccc1 [benzene]
0.0017

Please give measured Henry solubility constant Hcp of the following entry: CCCCCCCC(C)=O [2-nonanone]
0.041

###

Recorded Henry solubility constant Hcp values for a group of compounds are listed next.
Assay: Henry solubility constant Hcp at 298.15 K (mol/(m3 Pa))
Details: reference: Li and Carr (1993)
Reply: number alone, nothing else.

Example entries and their recorded answers appear below.
Please give measured Henry solubility constant Hcp of the following entry: `CCCCc1ccccc1`
0.00071

Please give measured Henry solubility constant Hcp of the following entry: `CCCc1ccccc1`
0.00093

Please give measured Henry solubility constant Hcp of the following entry: `ClCc1ccccc1`
0.012

Please give measured Henry solubility constant Hcp of the following entry: `CCOc1ccccc1`
0.017

Please give measured Henry solubility constant Hcp of the following entry: `Fc1ccccc1`
0.0011

---
Please give measured Henry solubility constant Hcp of the following entry: `Cc1ccccc1C`
0.0019

Please give measured Henry solubility constant Hcp of the following entry: `Cc1ccccc1`
0.0016

###

Recorded Henry solubility constant Hcp values for a group of molecules are listed next.
Assay: Henry solubility constant Hcp at 298.15 K (mol/(m3 Pa))
Conditions: reference: Li and Carr (1993)
Reply: number alone, nothing else.

Please give measured Henry solubility constant Hcp of the following entry: `Cc1cccc([N+](=O)[O-])c1`
0.28

Please give measured Henry solubility constant Hcp of the following entry: `Clc1ccccc1`
0.0025

Please give measured Henry solubility constant Hcp of the following entry: `CCCCCCCC=O`
0.021

Please give measured Henry solubility constant Hcp of the following entry: `Cc1cc(C)cc(C)c1`
0.0013

Please give measured Henry solubility constant Hcp of the following entry: `Cc1cccc(C)c1`
0.0013

###

Experiment: Henry solubility constant Hcp at 298.15 K (mol/(m3 Pa))
Details: reference: Li and Carr (1993)
property name: Henry solubility constant Hcp
Reply: number alone, nothing else.

Example entries and their recorded answers appear below.
Please give measured Henry solubility constant Hcp of the following entry: COc1ccccc1 [methoxybenzene]
0.032

Please give measured Henry solubility constant Hcp of the following entry: Brc1ccccc1 [bromobenzene]
0.0044

Please give measured Henry solubility constant Hcp of the following entry: Cc1ccc(C)cc1 [1,4-dimethylbenzene]
0.0013

Please give measured Henry solubility constant Hcp of the following entry: Ic1ccccc1 [iodobenzene]
0.0076

Please give measured Henry solubility constant Hcp of the following entry: CCCCC#N [pentanenitrile]
0.14

We now examine a further compound.
Please give measured Henry solubility constant Hcp of the following entry: CCCOCCC [dipropyl ether]
0.003
